# Assayed System: full length MPS1 (Homo sapiens (Human), UniProt P33981)
# Sequence (P33981 whole entry): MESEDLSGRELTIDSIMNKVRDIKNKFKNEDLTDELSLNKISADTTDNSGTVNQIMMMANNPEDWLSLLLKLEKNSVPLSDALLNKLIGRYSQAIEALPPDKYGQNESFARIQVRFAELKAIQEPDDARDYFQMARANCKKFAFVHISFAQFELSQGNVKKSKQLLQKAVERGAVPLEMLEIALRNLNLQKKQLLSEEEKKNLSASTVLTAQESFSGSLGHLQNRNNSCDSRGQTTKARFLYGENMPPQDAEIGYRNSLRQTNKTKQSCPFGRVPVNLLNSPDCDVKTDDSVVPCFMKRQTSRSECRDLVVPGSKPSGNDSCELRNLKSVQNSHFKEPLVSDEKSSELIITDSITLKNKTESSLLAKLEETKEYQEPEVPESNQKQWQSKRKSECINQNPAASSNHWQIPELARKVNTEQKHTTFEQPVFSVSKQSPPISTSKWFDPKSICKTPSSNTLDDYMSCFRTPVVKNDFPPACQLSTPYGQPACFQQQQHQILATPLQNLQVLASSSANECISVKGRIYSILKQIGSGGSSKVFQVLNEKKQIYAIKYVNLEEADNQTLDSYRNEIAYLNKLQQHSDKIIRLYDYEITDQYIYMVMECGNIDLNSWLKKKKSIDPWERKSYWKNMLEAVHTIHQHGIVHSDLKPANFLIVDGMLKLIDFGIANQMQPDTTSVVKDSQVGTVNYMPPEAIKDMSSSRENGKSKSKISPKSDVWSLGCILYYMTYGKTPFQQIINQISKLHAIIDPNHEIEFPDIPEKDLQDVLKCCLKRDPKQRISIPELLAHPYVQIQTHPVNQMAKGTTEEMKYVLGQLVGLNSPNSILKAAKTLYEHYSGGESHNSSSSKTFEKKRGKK
# Assay Name: Measurement of inhibition of MPS1 kinase (Caliper EZ reader, fluorescent labelled peptide H236)
# Type: biochemical
# Stated Conditions: full length MPS1 12.5 nM or 3 nM, peptide H236 5 μM, ATP 10 μM, 60 min at room temperature
IC50 under 3 nM gets class 1, anything at or over 3 nM gets class 0.

Ask | # check: IC50 < 3 nM for COc1c(Nc2cc3cc(-c4cnn(CC(C)(C)O)c4)ccc3cn2)ccc(-c2cnc(C)n2C)c1F [Example 50]
Reply | class 1

Ask | Would you kindly repeat that for COc1cc(C(=O)N(C)C)ccc1Nc1cc2cc(-c3cnn(CC(C)(C)O)c3)ccc2cn1 [Example 60] ?
Reply | class 1

Ask | Would you kindly repeat that for CC(C)(O)Cn1cc(-c2ccc3cnc(Nc4ccc(-c5cncnc5)cc4Cl)cc3c2)cn1 [Example 58] ?
Reply | class 0

Ask | Would you kindly repeat that for COc1cc(-c2cnc(C)n2C)ccc1Nc1cc2cc(-c3cnn(C4CCOCC4)c3)ccc2cn1 [Example 39] ?
Reply | class 0

Ask | Would you kindly repeat that for COc1cc(-c2cnc(C)n2C)ccc1Nc1cc2cc(C(=O)N(C)C)ccc2cn1 [Example 89] ?
Reply | class 0

Ask | Would you kindly repeat that for COc1cc(-c2cnc(C)n2C)ccc1Nc1cc2cc(-c3cnn(CC4CCOCC4)c3)ccc2cn1 [Example 1] ?
Reply | class 1

Ask | Would you kindly repeat that for COc1cc(-c2cnc(C)n2C)ccc1Nc1cc2cc(-c3cnn(CC(C)(C)O)c3)ccc2cn1 [Example 29] ?
Reply | class 1

Ask | Would you kindly repeat that for COc1cc(-c2cnc(C)n2C)ccc1Nc1cc2cc(-c3cnn(CC(C)O)c3)ccc2cn1 (single isomer, unassigned) [Example 99] ?
Reply | class 0

Ask | Would you kindly repeat that for COc1cc(C(=O)N2CC(OC)C2)ccc1Nc1cc2cc(-c3cnn(CC4(O)CCC4)c3)ccc2cn1 [Example 87] ?
Reply | class 0

Ask | Would you kindly repeat that for COc1cc(C(=O)N2CC(F)(F)C2)ccc1Nc1cc2cc(-c3cnn(CC(C)(C)O)c3)ccc2cn1 [Example 93] ?
Reply | class 0

Ask | Would you kindly repeat that for CCn1cc(-c2ccc3cnc(Nc4ccc(-c5cnc(C)n5C)cc4OC)cc3c2)cn1 [Example 10] ?
Reply | class 0

Ask | Would you kindly repeat that for COc1cc(-c2cnc(C)n2C)ccc1Nc1cc2cc(-c3cnn(CC4CC4)c3)ccc2cn1 [Example 2] ?
Reply | class 1

###

# Assayed System: full length MPS1 (Homo sapiens (Human), UniProt P33981)
# Assay Name: Measurement of inhibition of MPS1 kinase (Caliper EZ reader, fluorescent labelled peptide H236)
# Format: biochemical
# Stated Conditions: full length MPS1 12.5 nM or 3 nM, peptide H236 5 μM, ATP 10 μM, 60 min at room temperature
Quantity: pIC50
# log scale: pIC50 equals minus log10 of the concentration in mol/L

Ask | Record lookup: for full length MPS1 (Homo sapiens (Human), UniProt P33981), what pIC50 belongs to `Cc1ncc(-c2ccc(Nc3cc4cc(-c5cnn(CC(C)(C)O)c5)ccc4cn3)cc2)n1C` ?
Reply | 8.22

Ask | Would you kindly repeat that for `COc1cc(-c2cnc(C)n2C)ccc1Nc1cc2cc(-c3cnn(C)c3)ccc2cn1` ?
Reply | 8.70

Ask | Would you kindly repeat that for `COc1cc(C(=O)N2CC(OC)C2)ccc1Nc1cc2cc(-c3cnn(CC(C)(C)OC)c3)ccc2cn1` ?
Reply | 8.52

Ask | Would you kindly repeat that for `COc1cc(-c2cnc(C)n2C)ccc1Nc1cc2cc(-c3cnn(CC4(C)COC4)c3)ccc2cn1` ?
Reply | 8.70

Ask | Would you kindly repeat that for `COc1cc(-c2cnc(C)n2C)ccc1Nc1cc2nc(-c3cnn(CC(C)(C)O)c3)ccc2cn1` ?
Reply | 8.70

Ask | Would you kindly repeat that for `COc1cc(-c2cnc(C)n2C)ccc1Nc1cc2cc(-c3cnnn3C)ccc2cn1` ?
Reply | 8.40

Ask | Would you kindly repeat that for `COc1cc(-c2cnc(C)n2C)ccc1Nc1cc2cc(-c3cnn(C4CCN(C(=O)OC(C)(C)C)CC4)c3)ccc2cn1` ?
Reply | 6.96

Ask | Would you kindly repeat that for `COc1cc(-c2cnc(C)n2C)ccc1Nc1cc2cc(-c3cnn(C4COC4)c3)ccc2cn1` ?
Reply | 8.52
